Biological target: T1, human IL-2 (wildtype) (human, UniProt P60568 21-153)
T1 construct: also called IL-2 (WT); IL-2 wt
T1 sequence (P60568 21-153 limits assumed): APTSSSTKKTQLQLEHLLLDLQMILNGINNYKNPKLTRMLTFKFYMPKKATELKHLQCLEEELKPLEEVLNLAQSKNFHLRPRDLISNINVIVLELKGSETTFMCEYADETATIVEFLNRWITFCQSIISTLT
Experiment: SET assay (solution equilibration titration, MSD)

{"BINDER": "104349 (antibody, V domains shown, VH5/VK2) VH: EVQLVQSGAEVKKPGESLKISCKGSGYAFTNYLIEWVRQMPGKGLEWMGVINPGSGGTNYNEKFKGQVTISADKSISTAYLQWSSLKASDTAMYYCARWRGDGYYAYFDVWGQGTTVTVSS VL: DIVLTQSPLSLPVTLGQPASISCKASQSVDYDGDSYMNWYQQRPGQSPRLLIYAASNLESGVPDRFSGSGSGTDFTLKISRVEAEDVGVYYCQQSNEDPYTFGGGTKVEIK", "binding result": "binds"}
{"BINDER": "104347 (antibody, V domains shown, VH3s/VK3s) VH: QVQLVESGGGVVQPGRSLRLSCAASGYTFSSYLIEWVRQAPGKGLEWVAVINPGSGGTNYADSVKGRFTISADKSKNTAYLQMNSLRAEDTAVYYCARWRGDGYYAYFDVWGQGTTVTVSS VL: EIVLTQSPATLSVSPGERATLSCRASQSVSYDGDSYMNWYQQKPGQAPRLLIYAASNLASGIPARFSGSGSGTEFTLTISSLQSEDAAVYYCQQSNEDPYTFGGGTKVEIK", "binding result": "binds"}
{"BINDER": "104348 (antibody, human IgG1, kappa, N297A, V domains shown, VH5/VK1, human IgG1 N297A) VH: EVQLVQSGAEVKKPGESLKISCKGSGYAFTNYLIEWVRQMPGKGLEWMGVINPGSGGTNYNEKFKGQVTISADKSISTAYLQWSSLKASDTAMYYCARWRGDGYYAYFDVWGQGTTVTVSS VL: AIRLTQSPSSFSASTGDRVTITCKASQSVDYDGDSYMNWYQQKPGKAPKLLIYAASNLESGVPSRFSGSGSGTDFTLTISSLQSEDFATYYCQQSNEDPYTFGGGTKVEIKR", "binding result": "binds"}
{"BINDER": "104343 (antibody, human IgG1, kappa, N297A, V domains shown, VH1/VK2, human IgG1 N297A) VH: QVQLVQSGAEVKKPGSSVKVSCKASGYAFTNYLIEWVRQAPGQGLEWMGVINPGSGGTNYNEKFKGRVTITADKSTSTAYMELSSLRSEDTAVYYCARWRGDGYYAYFDVWGQGTTVTVSS VL: DIVLTQSPLSLPVTLGQPASISCKASQSVDYDGDSYMNWYQQRPGQSPRLLIYAASNLESGVPDRFSGSGSGTDFTLKISRVEAEDVGVYYCQQSNEDPYTFGGGTKVEIKR", "binding result": "binds"}
